# target.entity: human prostanoid EP1 receptor (Homo sapiens)
# Construct: expressed in transfected cells; host or cells: CHO-K1 (membrane fraction)
# Sequence (P34995 1-402): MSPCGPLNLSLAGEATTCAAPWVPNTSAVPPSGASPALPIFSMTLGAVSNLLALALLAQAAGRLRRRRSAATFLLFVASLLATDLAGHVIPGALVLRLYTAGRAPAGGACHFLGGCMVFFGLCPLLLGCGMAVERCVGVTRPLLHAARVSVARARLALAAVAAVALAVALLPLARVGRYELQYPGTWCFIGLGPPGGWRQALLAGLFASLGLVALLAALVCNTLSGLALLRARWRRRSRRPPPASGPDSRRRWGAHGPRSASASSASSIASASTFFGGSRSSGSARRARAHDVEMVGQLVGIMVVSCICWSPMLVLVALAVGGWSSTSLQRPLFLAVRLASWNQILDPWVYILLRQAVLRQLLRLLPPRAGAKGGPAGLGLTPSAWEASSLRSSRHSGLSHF
# assay.overview: Binding assay for the human prostanoid EP1 receptor (competition with [3H]-PGE2)
# condition.context: negative logarithm10 of the IC50; competition with [3H]-PGE2, CHO-K1 cell membranes; averages of a number of experiments; read-out: pIC50 value (converted)
# Experimental: Competition assay using [^3H]-PGE2. Compound potencies are determined using a radioligand binding assay. In this assay compound potencies are determined from their ability to compete with tritiated prostaglandin E2 ([^3H]-PGE2) for binding to the human EP1 receptor. This assay utilises Chinese hamster ovary-K1 (CHO-K1) cells into which a stable vector containing the EP1 cDNA has previously been transfected. […]
Where a name gives a salt, the structure may show the parent alone.

# compound, target.entity, IC50
data = [
    ("Cc1cc(C(=O)Nc2ccc(CN3CCCCC3)cc2)nn1Cc1cc(Cl)ccc1OCC(C)C [Example 397, hydrochloride]", "human prostanoid EP1 receptor (Homo sapiens)", "≤ 10 nM"),
    ("Cc1cc(NC(=O)CC(C)(C)C)nn1Cc1cc(Cl)ccc1OCc1ccccc1", "human prostanoid EP1 receptor (Homo sapiens)", "≤ 10 nM"),
    ("Cc1cc(-c2nc3ccc(N(C)C)cc3[nH]2)nn1Cc1cc(Cl)ccc1OCC(C)C [Example 473, dihydrochloride]", "human prostanoid EP1 receptor (Homo sapiens)", "≤ 10 nM"),
    ("Cc1cc(NC(=O)CC(C)(C)C)nn1Cc1cc(Cl)ccc1OCc1ccc(F)cc1Cl", "human prostanoid EP1 receptor (Homo sapiens)", "≤ 10 nM"),
    ("Cc1cc(-c2nc3cc(CO)ccc3[nH]2)nn1Cc1cc(Cl)ccc1OCC(C)C [Example 377, hydrochloride]", "human prostanoid EP1 receptor (Homo sapiens)", "≤ 10 nM"),
    ("Cc1noc(C)c1S(=O)(=O)NC(=O)c1cc(C)n(Cc2cc(Cl)ccc2OCc2ccccc2)n1", "human prostanoid EP1 receptor (Homo sapiens)", "≤ 10 nM"),
    ("Cc1cc(NC(=O)c2cccc3ccccc23)nn1Cc1cc(Cl)ccc1OCc1ccccc1", "human prostanoid EP1 receptor (Homo sapiens)", "≤ 10 nM"),
    ("Cc1cc(C(=O)Nc2ccc(CN3CCNC(=O)C3)cc2)nn1Cc1cc(Cl)ccc1OCC(C)C [Example 399, hydrochloride]", "human prostanoid EP1 receptor (Homo sapiens)", "≤ 10 nM"),
    ("Cc1cc(-c2nc3ncccc3[nH]2)nn1Cc1cc(Cl)ccc1OCC(C)C [Example 372, hydrochloride]", "human prostanoid EP1 receptor (Homo sapiens)", "≤ 10 nM"),
    ("Cc1cc(NC(=O)OC(C)(C)C)nn1Cc1cc(Br)ccc1OCc1ccc(Cl)cc1Cl", "human prostanoid EP1 receptor (Homo sapiens)", "≤ 10 nM"),
    ("Cc1cc(NC(=O)CC2CCCCC2)nn1Cc1cc(Cl)ccc1OCc1ccccc1", "human prostanoid EP1 receptor (Homo sapiens)", "≤ 10 nM"),
    ("Cc1cc(NC(=O)OC2CCOCC2)nn1Cc1cc(Br)ccc1OCc1ccc(Cl)cc1Cl", "human prostanoid EP1 receptor (Homo sapiens)", "≤ 10 nM"),
    ("Cc1cc(NC(=O)CC(C)(C)C)nn1Cc1cc(Cl)ccc1OCc1ccc(Cl)cc1", "human prostanoid EP1 receptor (Homo sapiens)", "≤ 10 nM"),
    ("Cc1cc(-c2nnn[nH]2)nn1Cc1cc(Cl)ccc1OCc1ccccc1", "human prostanoid EP1 receptor (Homo sapiens)", "≤ 10 nM"),
    ("Cc1cc(C(=O)Nc2ccc(CN(C)C)cc2)nn1Cc1cc(Cl)ccc1OCC(C)C [Example 394, hydrochloride]", "human prostanoid EP1 receptor (Homo sapiens)", "≤ 10 nM"),
    ("Cc1cc(NC(=O)Cc2ccccc2)nn1Cc1cc(Cl)ccc1OCc1cc(F)c(F)cc1F", "human prostanoid EP1 receptor (Homo sapiens)", "≤ 10 nM"),
    ("Cc1cc(NC(=O)OC(C)(C)C)nn1Cc1cc(Br)ccc1OCc1ccc(F)cc1F", "human prostanoid EP1 receptor (Homo sapiens)", "≤ 10 nM"),
]
